- Target Of Assay: UDP-N-acetylglucosamine 1-carboxyvinyltransferase (Pseudomonas aeruginosa (strain ATCC 15692 / PAO1 / 1C / PRS 101 / LMG12228), UniProt Q9HVW7)
- Sequence (Q9HVW7 whole entry): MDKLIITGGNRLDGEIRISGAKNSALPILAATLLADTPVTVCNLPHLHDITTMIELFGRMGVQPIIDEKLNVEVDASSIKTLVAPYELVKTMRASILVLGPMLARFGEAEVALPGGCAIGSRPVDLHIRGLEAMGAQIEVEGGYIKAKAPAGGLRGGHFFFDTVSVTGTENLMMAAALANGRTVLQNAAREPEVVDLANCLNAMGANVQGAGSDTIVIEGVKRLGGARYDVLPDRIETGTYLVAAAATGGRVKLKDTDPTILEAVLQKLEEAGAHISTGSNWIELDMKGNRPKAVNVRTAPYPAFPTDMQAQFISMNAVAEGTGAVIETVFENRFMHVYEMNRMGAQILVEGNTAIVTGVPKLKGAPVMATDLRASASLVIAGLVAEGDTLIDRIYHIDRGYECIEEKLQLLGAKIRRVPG
- Assay Text: Inhibition of Pseudomonas aeruginosa PAO1293 MurA in presence of UNAG
Here the recorded pIC50 is given for each entry.
Field pIC50 (float): negative decimal logarithm of the concentration in molar.

| Compound | pIC50 |
| --- | --- |
| C=C1C(=O)O[C@@H]2/C=C(\C)CC/C=C(/C)C[C@@H](OC(=O)/C(=C/CO)CO)[C@@H]12 | 4.70 |
| C=C(CO)C(=O)O[C@H]1CC(=C)[C@@H]2C[C@H](O)C(=C)[C@@H]2[C@H]2OC(=O)C(=C)[C@@H]21 | 4.92 |
| C[C@@H]1O[C@@H]1P(=O)(O)O | 4.98 |

Query: Supply recorded pIC50 for C=C1C(=O)O[C@@H]2/C=C(\CO)CC/C=C(\C)C[C@H](OC(=O)C(=C)[C@H](O)CO)[C@@H]12 here.
Result: 4.99

Query: Supply recorded pIC50 for C=C1C(=O)O[C@@H]2C3O[C@]3(C)CC/C=C(\C)CC[C@@H]12 (stereo not given in full) here.
Result: 4.56
